B1: peptide HD2 (from tick evasin EVA4) / CCL1 (biotinylated, synthetic) (parent)
chain 1: EEDDYTAYAPLTCYFT
chain 2: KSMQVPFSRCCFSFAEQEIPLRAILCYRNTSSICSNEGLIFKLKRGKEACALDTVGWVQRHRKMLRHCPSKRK

variants of: B1; details: with CCL1 (biotinylated, synthetic); scale: log2
# cutoff -7 applies to enrichment; >= gives 1, < gives -1

# variant, cat
records = [
    ("chain 1 Y8C", -1),
    ("chain 1 Y14K", -1),
    ("chain 1 Y5G", 1),
    ("chain 1 Y14G", -1),
]

Could you please find out whether chain 1 Y8S has enrichment that meets -7 or exceeds it?
-1

Would you kindly repeat that for chain 1 P10N ?
-1

Would you kindly repeat that for chain 1 Y8Q ?
1

Would you kindly repeat that for chain 1 Y14D ?
1

Would you kindly repeat that for chain 1 L11E ?
-1

Would you kindly repeat that for chain 1 D4V ?
-1

Would you kindly repeat that for chain 1 P10F ?
-1

Would you kindly repeat that for chain 1 C13K ?
-1
